Measured values drawn from PubChem BioAssay (NCI) for this set.

Below, each entry is listed alongside its reported GI50.
test system: HOP-62 NSCLC; assay: NCI tumour cell line growth inhibition, 48 h
measured-attribute: GI50

structure_notation=NC(=NC1CCCCCC1)c1ccc(N2CCN(c3ccc(C(N)=NC4CCCCCC4)cc3)CC2)cc1 target="HOP-62 NSCLC" observed="8.48 µM"
structure_notation=COc1ccc(C(=O)c2cc(OC)c(OC)c(OC)c2)cc1O target="HOP-62 NSCLC" observed="0.0931 µM"
structure_notation=Cc1nc(NC(=S)Nc2ccc(F)cc2)sc1C(=O)NNC(=S)Nc1ccc(F)cc1 target="HOP-62 NSCLC" observed="26.5 µM"
structure_notation=O=[N+]([O-])c1cc(Br)cc2c1[nH]c1ccc(Br)cc12 target="HOP-62 NSCLC" observed="2.11 µM"
structure_notation=O=C(O)c1ccc(NS(=O)(=O)c2cccc3cccnc23)cc1 target="HOP-62 NSCLC" observed="> 100 µM"
structure_notation=COc1ccc(C2=C(c3cn(C)c4ccccc34)C(=O)NC2=O)cc1OC target="HOP-62 NSCLC" observed="11.8 µM"
structure_notation=C[C@@H]1CCN(C(=O)CC#N)C[C@@H]1N(C)c1ncnc2[nH]ccc12 target="HOP-62 NSCLC" observed="40.6 µM"
structure_notation=O=C(Nc1ccncc1)C(=O)c1cn(S(=O)(=O)c2ccccc2F)c2ccccc12 target="HOP-62 NSCLC" observed="1.96 µM"
structure_notation=Cc1nn2c(/C=C3/C(=O)Nc4ccccc43)c(-c3ccc(Cl)cc3)nc2s1 target="HOP-62 NSCLC" observed="22.4 µM"
structure_notation=COc1cc(-c2cn(-c3ccc(Cl)cc3)c(=O)[nH]2)cc(OC)c1OC target="HOP-62 NSCLC" observed="> 100 µM"
structure_notation=Cc1cc(-c2nc3ccc(O)cc3s2)ccc1N target="HOP-62 NSCLC" observed="31.1 µM"
structure_notation=CC[O-].CC[O-].O=Nc1ccc2cc([O-])ccc2c1.O=Nc1ccc2cc([O-])ccc2c1.[Ti+4] target="HOP-62 NSCLC" observed="3.3 µM"
structure_notation=CN(C)CC#Cc1cccc(C(=O)c2cnn(-c3ccc(F)cc3)c2N)c1 target="HOP-62 NSCLC" observed="> 25 µM"
structure_notation=O=C(Nc1cc(Cl)ccc1O)c1cccc(NC2=C(Cl)C(=O)N(Cc3ccccc3)C2=O)c1 target="HOP-62 NSCLC" observed="26.7 µM"
structure_notation=Cn1c2ccccc2c2nnc(N/N=C/c3ccccn3)nc21 target="HOP-62 NSCLC" observed="0.337 µM"
structure_notation=O=C(c1cc(-c2cc3c(cc2C(=O)N2Cc4ccccc4C[C@H]2CN2CCOCC2)OCO3)n2c1CCCC2)N(c1ccccc1)c1ccc(O)cc1 target="HOP-62 NSCLC" observed="64.4 µM"
structure_notation=CC1(C)N=C(N)N=C(N)N1c1cccc(CCCCc2ccc(S(=O)(=O)F)cc2Cl)c1 target="HOP-62 NSCLC" observed="5.72 µM"

###

test system: HL-60(TB) leukemia; test: NCI tumour cell line growth inhibition, 48 h
*1 amine or outer side, *2 acyl side, *3 side chain or, on linkers, in order; H or OH if unused. Where a SMILES comes first, the peptide text is derived from it. Bridges are numbered along the chain shown (N, C = ends). [ ]: non-standard residue; d: D form. The star is where a group is joined. Phe(3-Me) = Cc1cccc(C[C@H](N)C(=O)O)c1; NH(4-Cl-2-F-phenyl) = Fc1cc(Cl)ccc1N*; Pro(4R-Me) = C[C@H]1CN[C@H](C(=O)O)C1; Hyp = O=C(O)[C@@H]1C[C@@H](O)CN1; aThr = C[C@H](O)[C@H](N)C(=O)O; Pip = O=C(O)[C@@H]1CCCCN1; CO = O=C([*:1])[*:2]
Please enter Satisfied where TGI is greater than or equal to 9 µM, and Not satisfied where it is lower.

molecule=CCOC(=O)CC[C@@H](NC(=O)c1ccc(NCc2ccc3nc(OC)c(OC)nc3c2)cc1)C(=O)OCC category=Satisfied
molecule=CN(/N=N/c1nc(OCc2ccccc2)c2[nH]cnc2n1)C(=O)N(C)/N=N/c1nc(OCc2ccccc2)c2[nH]cnc2n1 category=Satisfied
molecule=CCS(=O)(=O)c1ccc(OC)c(Nc2nccc(N(C)c3ccc4c(C)[nH]nc4c3)n2)c1 category=Satisfied
molecule=O=C(N/N=C/c1cc(Br)cc(Br)c1[O-])c1ccccc1O.O=C(N/N=C/c1cc(Br)cc(Br)c1[O-])c1ccccc1O.[Mn+2] category="Not satisfied"
molecule=CCOC(=O)[C@@H](C)C[C@H](Cc1ccccc1)NC(=O)c1csc([C@@H](C[C@H](C(C)C)N(C)C(=O)[C@H](CCC(C)C)NC(=O)[C@H]2CCCCN2C)OC(C)=O)n1 category="Not satisfied"
molecule=CCOC(=O)c1ccc(Nc2nc3ccc(C(F)(F)F)cc3nc2-c2ccccc2)cc1 category=Satisfied
molecule=O[C@]12CCCC[C@H]1CCC2 category=Satisfied
molecule=N#CC1(c2nc3ccccc3o2)C(=O)C(=O)N(c2ccc(Cl)c(Cl)c2)C(=O)C1=O category=Satisfied
molecule=CC(=O)Oc1cccc2c1C(=O)C(Br)(Br)CCC2 category="Not satisfied"
molecule=CN(C)CCNC(=O)c1cc([N+](=O)[O-])ccn1 category=Satisfied
molecule=Nc1ccccc1Sc1ccc(Cl)cc1 category=Satisfied
molecule=O=C(NCCCCNCCCNC(=O)C(F)(F)F)C(F)(F)F category=Satisfied
molecule=C#CC[C@H](c1nc2cc(Cl)ccc2c(=O)n1Nc1ccccc1)N(CCCN)C(=O)c1cccc(Cl)c1F category="Not satisfied"
molecule="Cc1cccc(C[C@H](NC(=O)Nc2ccc(Cl)cc2F)C(=O)N[C@@H]2C(=O)N3C[C@H](O)C[C@H]3C(=O)N3CCCC[C@H]3C(=O)N[C@@H](C)C(=O)N3C[C@H](C)C[C@H]3C(=O)O[C@H]2C)c1 ({NH(4-Cl-2-F-phenyl)-CO}-[Phe(3-Me)][aThr][Hyp][Pip]A[Pro(4R-Me)]; ester 2-C)" category="Not satisfied"
molecule=O=C1CNc2cc(N3CCN(c4cccc(C(F)(F)F)c4)CC3)ccc2N1 category=Satisfied
molecule=COc1cc(/C=C2\CCc3cc(OC)c(OC)cc3C2=O)cc(OC)c1 category=Satisfied
molecule=CCO[C@H]1C[C@@H](c2ccccc2)[C@]2(C)C[C@H](C(=O)OC)ON2O1 category=Satisfied
molecule=O=C(c1ccc(Cl)cc1)N(C(=S)N1CCN(c2ccccc2)CC1)c1ccccc1 category=Satisfied
molecule="CC1CSc2nc3[nH]c(=S)[nH]c3c(=O)n2C1 (configuration not stated)" category=Satisfied
molecule=C/C=C/[C@@H]1O[C@H](CC#C[Si](C)(C)C)[C@@]2(C=O)C(C)=CC[C@H](C(C)C)[C@@H]12 category=Satisfied
molecule=COc1ccc(/C=C2\CNC/C(=C\c3ccc(OC)cc3)C2=O)cc1 category=Satisfied
molecule="O=C1NC2(O)c3ccccc3C(=O)C2(O)N1c1ccccc1 (configuration not stated)" category=Satisfied
molecule=O=S(=O)(O)c1ccc(N=Nc2ccc(N=Nc3ccc(/C=C/c4ccc(N=[N+]([O-])c5ccc(/C=C/c6ccc(N=Nc7ccc(N=Nc8ccc(S(=O)(=O)O)cc8)c8ccccc78)cc6S(=O)(=O)O)c(S(=O)(=O)O)c5)cc4S(=O)(=O)O)c(S(=O)(=O)O)c3)c3ccccc23)cc1 category=Satisfied
molecule="CC1(C)OC2CN(C(=O)OCc3ccccc3)C(CO)C2O1 (configuration not stated)" category=Satisfied
molecule=Cc1cccc(C)c1NC(=O)C(=O)CC(=O)CO category=Satisfied
molecule=CCOC(=O)NC(=O)c1cn(CCCOC(=O)CCCCCCCCC(=O)OCCCn2cc(C(=O)NC(=O)OCC)c(=O)[nH]c2=O)c(=O)[nH]c1=O category=Satisfied
molecule=Cc1nc(NC(=S)Nc2ccc(F)cc2)sc1C(=O)NNC(=S)Nc1ccc(F)cc1 category=Satisfied
molecule="Clc1cc(Cl)cc(N2N=C(c3cccc(Nc4ccncc4)c3)CC2c2ccc(Br)cc2)c1 (configuration not stated)" category="Not satisfied"
molecule=COc1cc(/C=C/C(=O)O)ccc1O category=Satisfied
molecule=COc1cccc(/C=C/C(=O)c2cc3c(N)c(C(=O)Nc4cccc(Cl)c4C)sc3nc2C)c1 category="Not satisfied"
molecule=N#C[C@](CO)(NC(=O)OCc1ccccc1)C(F)F category=Satisfied
